Each recorded value in this set is attributed to PubChem BioAssay (Tox21).

experiment: A CellTox Green Cytotoxicity Assay to monitor cytotoxicity in HEK293 cells - 32 hour (AID 1224881); conditions: CellTox Green fluorescence; series mostly up to 76.8 µM; further: on the % scale 0 is the no-effect control and ±100 the full control effect; nearly all actives have a fitted effect of over 40% in size
Results filed as inconclusive are left out. Activity calls are given as the source filed them. The call rests on the fitted dose curve; in most records, active means well fitted activation curve with a large enough effect in the repeat runs; inconclusive means weak or mixed curves; inactive means flat fitted curve, though single readings scatter.
assay metric: cytotoxicity increase

Here's what some known entries look like.
| compound | assay metric | reported value |
| --- | --- | --- |
| CC[C@H](C)C(=O)O[C@H]1C[C@H](O)C=C2C=C[C@H](C)[C@H](CC[C@@H](O)C[C@@H](O)CC(=O)O)[C@H]21 | cytotoxicity increase | inactive |
| O=C(O)c1ccc(Cl)cc1Cl | cytotoxicity increase | inactive |
| CCCCCCCC/C=C\CCCCCCCC(=O)OCCCC | cytotoxicity increase | -35.2% [at 15.8 µM] (inactive) |
| CCNC(=O)C1CC(C)CCC1C(C)C (centres undefined) | cytotoxicity increase | inactive |
| CN1CCN(CC(=O)N2c3ccccc3C(=O)Nc3cccnc32)CC1 | cytotoxicity increase | -2.73% [at 6.97 µM] (inactive) |
| CCOc1cc(NC(C)=O)ccc1C(=O)OC | cytotoxicity increase | inactive |
| CCCCC(CC)COCCO (centres undefined) | cytotoxicity increase | inactive |
| Cc1ccccc1N=O | cytotoxicity increase | inactive |

Q. Which cytotoxicity increase value is on record for COC(=O)CCc1ccc(OCC(O)CNC(C)C)cc1 (centres undefined) ?
A. inactive

Q. Item Cc1ccc(S(=O)(=O)O)c(C)c1 has what recorded cytotoxicity increase?
A. inactive

Q. # query: cytotoxicity increase of entry Cc1cccc(OCC(O)CNC(C)(C)C)c1C (centres undefined)
A. inactive

Q. GET /values?readout=cytotoxicity increase&item= NCCN1CCOCC1
A. inactive

Q. Returns the measured cytotoxicity increase for the input compound. Input: On1nnc2ccccc21
A. inactive

Q. Dear colleague, I am looking for the recorded cytotoxicity increase of the following compound: CCCCOCCOC(=O)COc1nc(Cl)c(Cl)cc1Cl
A. inactive

Q. Quick one: cytotoxicity increase for CN1C(C)(C)CCCC1(C)C ?
A. inactive

* * *

experiment: qHTS assay to identify small molecule agonists of the estrogen receptor beta (ER-beta) signaling pathway - cell viability counter screen (AID 1259380); conditions: ER-beta-bla HEK293T viability, CellTiter-Glo luminescence, 16 h; series mostly up to 92.4 µM; further: on the % scale 0 is the no-effect control and ±100 the full control effect; nearly all actives have a fitted effect of over 30% in size
Records with an inconclusive call do not appear. Activity calls are given as the source filed them. The call rests on the fitted dose curve; in most records, active means well fitted cell-killing curve with a large enough effect in the repeat runs; inconclusive means weak or mixed curves, or effect the other way; inactive means flat fitted curve, though single readings scatter.
assay metric: activity change, negative = cytotoxicity

Would you please look over these solved cases?
| compound | assay metric | reported value |
| --- | --- | --- |
| Cc1nc2n(c(=O)c1CCN1CCC(c3noc4cc(F)ccc34)CC1)CCC[C@H]2O | activity change, negative = cytotoxicity | -7.67% [at 19 µM] (inactive) |
| CCn1ccc(NS(=O)(=O)c2ccc(N)cc2)nc1=O | activity change, negative = cytotoxicity | inactive |
| CN1CCN(CC(=O)N2c3ccccc3C(=O)Nc3cccnc32)CC1 | activity change, negative = cytotoxicity | 5.53% [at 8.39 µM] (inactive) |
| Cc1cccc(C)c1OCC(C)N (configuration not stated) | activity change, negative = cytotoxicity | inactive |
| ClCCCl | activity change, negative = cytotoxicity | inactive |
| N[C@@H](CCC(=O)N[C@@H](CS)C(=O)NCC(=O)O)C(=O)O | activity change, negative = cytotoxicity | 8.98% [at 19 µM] (inactive) |

// switching to the query compound
Q. GET /values?readout=activity change, negative = cytotoxicity&item= Cc1[nH]cnc1-c1ccc(Cl)cc1
A. inactive
